assay-protocol: Plasma concentration in Sprague-Dawley rat at 10 mg/kg, iv after 15 mins
Assay type: ADME, organism-based
Design: dose 10 mg/kg, route intravenous
metric-name: concentration at […] (ng/mL)
The response must be a number in ng/mL with no trailing unit.

I would be grateful if you could share the reported concentration at […] for C=C[C@]1(C)C[C@@H](OC(=O)CSc2cncc(COP(=O)([O-])[O-])c2)[C@]2(C)[C@H](C)CC[C@]3(CCC(=O)[C@H]32)[C@@H](C)[C@@H]1O.[Na+].[Na+] .
3

###

Recorded below: IC50, system Cytochrome P450 2C9 (Homo sapiens, UniProt P11712).

compound: C=C[C@]1(C)C[C@@H](OC(=O)CSc2ccccn2)[C@]2(C)[C@H](C)CC[C@]3(CCC(=O)[C@H]32)[C@@H](C)[C@@H]1O
test-system: Cytochrome P450 2C9 (Homo sapiens, UniProt P11712)
Sequence (P11712 whole entry): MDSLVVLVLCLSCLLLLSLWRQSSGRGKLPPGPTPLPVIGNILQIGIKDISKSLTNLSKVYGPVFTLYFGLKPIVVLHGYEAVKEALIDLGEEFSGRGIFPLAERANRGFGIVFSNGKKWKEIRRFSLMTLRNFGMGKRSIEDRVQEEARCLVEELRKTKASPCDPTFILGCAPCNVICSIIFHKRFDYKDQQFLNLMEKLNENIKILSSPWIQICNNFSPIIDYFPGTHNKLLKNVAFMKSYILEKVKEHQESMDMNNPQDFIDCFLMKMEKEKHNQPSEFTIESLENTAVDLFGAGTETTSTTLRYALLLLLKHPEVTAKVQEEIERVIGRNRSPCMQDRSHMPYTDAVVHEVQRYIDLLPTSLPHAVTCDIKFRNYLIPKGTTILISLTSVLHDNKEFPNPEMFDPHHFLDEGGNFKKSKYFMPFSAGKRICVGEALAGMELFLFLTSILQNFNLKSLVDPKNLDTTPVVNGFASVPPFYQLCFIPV
metric-name: IC50
result: > 10 µM
//
compound: C=C[C@]1(C)C[C@@H](OC(=O)CSc2cncc(NC(=O)CN3CCCC(O)C3)c2)[C@]2(C)[C@H](C)CC[C@]3(CCC(=O)[C@H]32)[C@@H](C)[C@@H]1O (stereo partly specified)
test-system: Cytochrome P450 2C9 (Homo sapiens, UniProt P11712)
metric-name: IC50
result: > 25 µM
//
compound: C=C[C@]1(C)C[C@@H](OC(=O)CS[C@@H]2CC[C@@H](N)C[C@H]2O)[C@]2(C)[C@H](C)CC[C@]3(CCC(=O)[C@H]32)[C@@H](C)[C@@H]1O
test-system: Cytochrome P450 2C9 (Homo sapiens, UniProt P11712)
metric-name: IC50
result: > 25 µM
//
compound: C=C[C@]1(C)C[C@@H](OC(=O)CSc2cncc(NC(=O)CN3CCC(O)CC3)c2)[C@]2(C)[C@H](C)CC[C@]3(CCC(=O)[C@H]32)[C@@H](C)[C@@H]1O
test-system: Cytochrome P450 2C9 (Homo sapiens, UniProt P11712)
metric-name: IC50
result: > 25 µM

# get_value(readout= IC50, system= Cytochrome P450 2C9 (Homo sapiens, UniProt P11712)) for C=C[C@]1(C)C[C@@H](OC(=O)CSc2cncc(N)c2)[C@]2(C)[C@H](C)CC[C@]3(CCC(=O)[C@H]32)[C@@H](C)[C@@H]1O
> 25 µM

And the next one, C=C[C@]1(C)C[C@@H](OC(=O)CSc2cccc(CO)c2)[C@]2(C)[C@H](C)CC[C@]3(CCC(=O)[C@H]32)[C@@H](C)[C@@H]1O ?
11.1 µM

// data source = ChEMBL document CHEMBL3286253
